system: RPMI-8226; test: NCI tumour cell line growth inhibition, 48 h
Activity calls are given as the source filed them. Cut-off read from the data, not from the text of the source: active = GI50 up to about 1.1 µM and inactive = higher.
Lab note: assign the record to one of active, inactive

Example results:
Nc1cc2c3c(cccc3c1)C(=O)N(c1ccc(OCCN3CCCCC3)cc1)C2=O | inactive
Cc1ccc(S(=O)(=O)NNC(=O)c2cc(C)c(C)cc2N)cc1 | inactive
C=C(Br)CN(C(C)=O)C1CCCCC1 | inactive
N#C/C(=C\c1cccc(Br)c1)c1nc2ccccc2c(=O)[nH]1 | inactive
S=C(NN=C1NCCCCN1)Nc1ccccc1 | inactive

We now examine a further compound.
input: Name the outcome recorded for CC(C)/C(Cl)=N\OC(=O)Nc1ccc(F)cc1 in the assay.
output: inactive

----------
test system: OVCAR-8; test: NCI tumour cell line growth inhibition, 48 h
Calls of active or inactive are those of the source. Cut-off read from the data, not from the text of the source: active = GI50 up to about 1.1 µM and inactive = higher.
Lab note: assign the record to one of active, inactive

COC(=O)c1sc(C(=O)OC)c2c1CSC2 | inactive
COc1ccc(C2SC(=N)Nc3c2c(C)nn3C(=O)c2ccncc2)cc1OC (stereo unspecified) | inactive

input: Name the outcome recorded for Cc1ccc(S(=O)(=O)OC2C3OC(C)(C)OC3OC2C(c2cc(O)c3c(c2O)C(=O)c2ccccc2C3=O)c2cc(O)c3c(c2O)C(=O)c2ccccc2C3=O)cc1 (stereo unspecified) in the assay.
output: inactive

input: Name the outcome recorded for Nc1cc2c3c(cccc3c1)C(=O)N(c1ccc(OCCN3CCCCC3)cc1)C2=O in the assay.
output: inactive

input: Name the outcome recorded for Cc1cccc(C)c1NC(=O)C(=O)C(c1ccccc1Cl)S(=O)(=O)Cc1ccccc1Cl (stereo unspecified) in the assay.
output: inactive

input: Name the outcome recorded for Clc1cc2ncn(C3CCCCO3)c2cc1Cl (stereo unspecified) in the assay.
output: inactive

input: Name the outcome recorded for COc1ccc(NC(=S)Nc2c(C)n(C)n(-c3ccccc3)c2=O)cc1 in the assay.
output: inactive

input: Name the outcome recorded for COc1ccc(/C=C2\Cc3ccccc3C2=O)cc1OC in the assay.
output: inactive

input: Name the outcome recorded for Cc1ccc2[nH]c3c(C)c4c(c(C)c3c2c1)CN(C)C=C4 in the assay.
output: active

----------
test system: SNB-75; assay: NCI tumour cell line growth inhibition, 48 h
Activity calls are given as the source filed them. Cut-off read from the data, not from the text of the source: active = GI50 up to about 1.1 µM and inactive = higher.
Lab note: assign the record to one of active, inactive

input: Name the outcome recorded for C=C(Br)CN(C(C)=O)C1CCCCC1 in the assay.
output: inactive

input: Name the outcome recorded for Cc1ccc(SCC(CSCCO)OCn2cnc3c2N=C(N)NC32OCCO2)cc1 (centres undefined) in the assay.
output: inactive

input: Name the outcome recorded for COc1ccc(-n2c(C)nc3ccc(/N=C/c4ccccc4)cc3c2=O)cc1 in the assay.
output: inactive

----------
We begin with a simple list: items and their reported GI50.
system: A498; assay: NCI tumour cell line growth inhibition, 48 h
Activity calls are given as the source filed them. Cut-off read from the data, not from the text of the source: active = GI50 up to about 1.1 µM and inactive = higher.

Example entries begin here.
CN(C)c1ccc(/C=c2\sc3nnc(-c4cccnc4)n3c2=O)cc1 | > 100 µM (inactive)
CC(=O)OCC1=CC2OC(=O)C3=COC(OC4OC(CO)C(O)C(O)C4O)C1C32 (stereo not drawn) | > 100 µM (inactive)
Fc1ccc(C(OCCN2CCC3CCC(C2)N3C/C=C/c2cccs2)c2ccc(F)cc2)cc1 (stereo not drawn) | 9.06 µM (inactive)
NC(=O)CSc1nc2ccccc2c(=O)n1N | > 100 µM (inactive)

Form field GI50, entry Cc1ccc(C2=Nc3ccccc3NC(=O)C2)cc1 : > 100 µM (inactive)

Form field GI50, entry Cc1ccc2sc3ccc(N)cc3c(=O)c2c1 : 22.4 µM (inactive)

Form field GI50, entry Nc1nc(N)c(N=Nc2ccc([As](=O)(O)O)c(O)c2)c(N)n1 : 83.6 µM (inactive)

Form field GI50, entry C=CC[P@@]1(=O)O[C@H](c2ccccc2)C(C)N1C(C)C (stereo partly drawn) : > 100 µM (inactive)

Form field GI50, entry O=C(O)C(Cc1cc(I)c(O)c(I)c1)C1CCCCC1 (stereo not drawn) : 21.3 µM (inactive)

Form field GI50, entry CCOC(=O)c1c(OCC)[nH]c(=O)c(C(c2cccs2)c2c(O)c(C(=O)OCC)c(OCC)[nH]c2=O)c1O : 2.67 µM (inactive)

Form field GI50, entry C=C(CO)C(=O)OC1CC(=C)C2CC(O)C(C)C2C2OC(=O)C(=C)C12 (stereo not drawn) : 39.6 µM (inactive)

Form field GI50, entry CCC1=CC2CC(C(=O)OC)C1(N(C)C)C2=O (stereo not drawn) : > 100 µM (inactive)

Form field GI50, entry COc1ccc(-c2nc(N3CCCC3)no2)cc1 : 31.6 µM (inactive)

Form field GI50, entry COc1cc(/C=C/c2ccc(OC(C)=O)cc2)cc(OC)c1OC : 23.6 µM (inactive)

----------
We begin with a simple list: items and their reported GI50.
tested on: MCF7; assay: NCI tumour cell line growth inhibition, 48 h
Activity calls are given as the source filed them. Rule as the data show it: active = GI50 up to about 1.1 µM and inactive = higher.

CC1=CN(c2ccccc2)S2=C1c1sc3c(c1N2c1ccc(Br)cc1)CCCC3 (stereo not given) | > 100 µM (inactive)
CC(C)(Br)C(=O)N1CCN(C(c2ccccc2)c2ccccc2)CC1 | 24.3 µM (inactive)
CC(=O)Oc1ccc2c(c1)c1c(=O)oc(C)nc1n2Cc1ccccc1 | 47.8 µM (inactive)
S=C(NN=C1NCCCCN1)Nc1ccccc1 | 31.2 µM (inactive)

Form field GI50, entry Cn1c(=O)c(C(=O)Nc2nc(C34CC5CC(CC(C5)C3)C4)cs2)c(O)c2ccccc21 : > 100 µM (inactive)

----------
test system: HCC 2998; assay: NCI tumour cell line growth inhibition, 48 h
Activity calls are given as the source filed them. No stated cut-off is given here; in the data, active = GI50 up to about 1.1 µM and inactive = higher.
We begin with a simple list: items and their reported GI50.

Example entries begin here.
N#CC(NNC(=O)Cc1ccccc1)c1c(O)ccc2ccccc12 (stereo not drawn) | 14.3 µM (inactive)
COc1ccc2oc(=O)c(-c3csc(-c4ccccc4)n3)cc2c1 | 95.7 µM (inactive)
COC(=O)N/N=C(\C)CC(=O)Nc1ccc(Cl)cc1 | > 100 µM (inactive)
CC(=O)OCC1=CC2OC(=O)C3=COC(OC4OC(CO)C(O)C(O)C4O)C1C32 (stereo not drawn) | > 100 µM (inactive)
CCOC(=O)c1cc(/C=C/C(C)=C/C(=O)OC)oc1-c1ccccc1 | > 100 µM (inactive)
COc1ccc(-c2nnc3n(C)c4ccccc4n3c2=O)cc1 | > 100 µM (inactive)
O=C1N2CCC[C@H]2CS1(=O)=O | 17.3 µM (inactive)

Read the next record carefully.
Form field GI50, entry CC1OC(n2cc(F)c(=O)[nH]c2=O)C=CC1=O (stereo not drawn) : 17.8 µM (inactive)

----------
tested on: SR; test: NCI tumour cell line growth inhibition, 48 h
Active and inactive are the calls of the source. Cut-off read from the data, not from the text of the source: active = GI50 up to about 1.1 µM and inactive = higher.
Lab note: assign the record to one of active, inactive

input: Name the outcome recorded for CCCCCCCCCCCCCCCCCC(=O)NCC(COP(=O)(O)O)OCC (configuration not stated) in the assay.
output: inactive

input: Name the outcome recorded for NC(=O)C(=CNC(=S)Nc1ccccc1)C(N)=O in the assay.
output: inactive

----------
system: Malme-3M; assay: NCI tumour cell line growth inhibition, 48 h
Activity calls are given as the source filed them. Rule as the data show it: active = GI50 up to about 1.1 µM and inactive = higher.
Lab note: assign the record to one of YES for active, NO for inactive

Example results:
COc1cc(OC)cc(N2CCC(c3c(N)nc(N)nc3Cl)CC2)c1 | NO
Nc1nccc(Nc2ccc(S(N)(=O)=O)cc2)n1 | NO
O=c1[nH]nc2c3n[nH]c(=O)n3c3ccccc3n12 | NO
OCC[N+]12CCCN1CCC2 | NO
CCNC(=O)OCc1c(COC(=O)NCC)c(-c2ccc(Cl)c(Cl)c2)n2c1CCC2 | NO

input: Name the outcome recorded for O=C1OC(c2ccc([N+](=O)[O-])cc2)=N/C1=C\c1ccc(Cl)cc1 in the assay.
output: NO

input: Name the outcome recorded for C=C1C(=O)O[C@H]2[C@@H]3O[C@@](C)(CC/C=C(\C)CCC[C@@H]2C)[C@H](O)C[C@@H]13 in the assay.
output: NO

input: Name the outcome recorded for COC1CC(n2ccc(=O)[nH]c2=O)OC1CO (stereo not given) in the assay.
output: NO

input: Name the outcome recorded for CC(=O)c1c(C)cc2cccc(OC3OC(CO)C(O)C(O)C3O)c2c1O.CC1OC(O)C(O)C(O)C1O (stereo not given) in the assay.
output: NO

input: Name the outcome recorded for N#C/C(=C1\SC(/N=N/c2ccc(Cl)cc2)C(=O)N1c1ccccc1)c1nc2ccccc2[nH]1 (stereo not given) in the assay.
output: NO

input: Name the outcome recorded for Cc1ccc(/C=C/C(=N/NC(=O)N/N=C(/C=C/c2ccc(C)cc2)C(C)(C)CN2CCCCC2)C(C)(C)CN2CCCCC2)cc1 in the assay.
output: NO

input: Name the outcome recorded for COc1ccc(C(=O)/C=C2\C(=O)Nc3ccc(Br)cc32)cc1 in the assay.
output: NO

input: Name the outcome recorded for COc1cc2c(cc1OC)[C@H]1CN3CCC[C@H]3C=C1c1ccc(OC)c(O)c1-2 in the assay.
output: YES

input: Name the outcome recorded for C=C=C(CC(CC(=C)Br)(C(=O)OC)C(=O)OC)S(=O)(=O)c1ccccc1 in the assay.
output: NO
